Numbers sourced from patent US7589078B2.

System: mtDNA content of CEM cells
Assay: Mitochondrial DNA content in CEM cells (Southern blot)
Format: cell-based
Details: Homo sapiens, CCRF-CEM, 96 h, four days, read-out: Mitochondrial DNA Content ID50
Listing of entries alongside the reported IC50.

molecule | test.system | measurement.unit | sign | IC50
Nc1ccn([C@H]2CC[C@@H](CO)O2)c(=O)n1 [ddC, 2′,3′-dideoxycytidine, reference compound] | mtDNA content of CEM cells | µM | = | 0.15
C#C[C@@]1(CO)C=C[C@H](n2cc(C)c(=O)[nH]c2=O)O1 | mtDNA content of CEM cells | µM | > | 100
Nc1ccn([C@@H]2CS[C@H](CO)O2)c(=O)n1 [3TC, β-L-2′,3′-dideoxy-3′-thiacytidine, reference compound] | mtDNA content of CEM cells | µM | > | 200
Cc1cn([C@H]2C=C[C@@H](CO)O2)c(=O)[nH]c1=O [D4T, 2′,3′-Didehydro-3′-deoxythymidine, reference compound] | mtDNA content of CEM cells | µM | = | 9.3
